Kindly state normalised response for each of the entries shown.
System: HCC1143
protocolSummary: normalised response (% of control), CellTiter-Glo; higher = more viable cells (100 = DMSO, 0 = benzethonium chloride kill control)
runParameters: incubation time: 72 h
Field format: number, assumed %, no unit text.

Request the reported normalised response associated with Cn1c(CCCC(=O)O)nc2cc(N(CCCl)CCCl)ccc21 [Bendamustine] (100 nM)
111

Request the reported normalised response associated with N[C@@H](CSC(c1ccccc1)(c1ccccc1)c1ccccc1)C(=O)O [S-trityl-L-cysteine] (400 nM)
102

Request the reported normalised response associated with NC(=O)Nc1cc(-c2cccc(F)c2)sc1C(=O)N[C@H]1CCCNC1 [AZD7762] (10 nM)
110

Request the reported normalised response associated with CC(=O)Nc1ccc(C(=O)Nc2ccccc2N)cc1 [Tacedinaline] (10 nM)
99.7

Request the reported normalised response associated with CCC1(c2ccc(N)cc2)CCC(=O)NC1=O (centres undefined) [Aminoglutethimide] (100 nM)
95.3

Request the reported normalised response associated with Clc1ccc(Nc2nnc(Cc3ccncc3)c3ccccc23)cc1 [Vatalanib] (100 nM)
106

Request the reported normalised response associated with CCCCCCCCCCCCCCCCCCOP(=O)([O-])OC1CC[N+](C)(C)CC1 [Perifosine] (25 nM)
101

Request the reported normalised response associated with CN(N=O)C(=O)N[C@@H](C=O)[C@@H](O)[C@H](O)[C@H](O)CO [Streptozocin] (100 nM)
106

Request the reported normalised response associated with COc1cc([C@@H]2c3cc4c(cc3[C@@H](O[C@@H]3O[C@@H]5CO[C@@H](C)O[C@H]5[C@H](O)[C@H]3O)[C@H]3COC(=O)[C@H]23)OCO4)cc(OC)c1O [Etoposide] (100 nM)
100

Request the reported normalised response associated with Cc1ccc(C(=O)Nc2ccc(CN3CCN(C)CC3)c(C(F)(F)F)c2)cc1C#Cc1cnc2cccnn12 [Ponatinib] (10 nM)
99.5

Request the reported normalised response associated with CN(C)/N=N/c1[nH]cnc1C(N)=O [Dacarbazine] (100 nM)
112

Request the reported normalised response associated with CC(C)Cn1cnc2c(N)nc3ccccc3c21 [Imiquimod] (25 nM)
107

Request the reported normalised response associated with O=C(CCCCCCC(=O)Nc1ccc([C@H]2O[C@@H](CSc3nc(-c4ccccc4)c(-c4ccccc4)o3)C[C@@H](c3ccc(CO)cc3)O2)cc1)NO [Tubacin] (100 nM)
96

Request the reported normalised response associated with O=P1(NCCCl)OCCCN1CCCl (centres undefined) [Ifosfamide] (100 nM)
99.7
